Molecular target: UniProt Q16548
Test: Time-resolved FRET binding assay
Settings: TR-FRET, individual determinations; read-out: Individual Ki, BCL2-A1
TEST READOUT: Ki

q: Output Ki of COc1ccccc1-c1nccc(COc2ccccc2CC(Oc2ncnc3sc(-c4ccc(F)cc4)c(-c4ccc(OCCN5CCN(C)CC5)c(Cl)c4C)c23)C(=O)O)n1 (stereo not shown) [Compound 1, reference compound]
a: > 468 nM

###

Assay: Phase 1 first-in-human study (NCT04178902): pharmacokinetics
Format: in vivo
Settings: human, plasma, intravenous, 0.53 mg/kg, Cycle 1 day 15, 0.53 mg/kg, N=2, individual values
TEST READOUT: AUC(0-inf)
Lab note: write values as number then unit, every time.

q: Entry Cc1c(Cl)c2c(Cl)c(C)c1-c1c(-c3ccc(F)cc3)sc3ncnc(c13)O[C@@H](C(=O)O)Cc1cc(ccc1OCc1ccnc(-c3ccc(OC[C@H]4COCCO4)cc3)n1)OC[C@@H](CN1CCN(C)CC1)O2 [ABBV-467] needs its AUC(0-inf) filled in; supply it.
a: 933 ng·h/mL

###

Target: BCL2-A1 (Homo sapiens)
Sequence (Q16548 whole entry): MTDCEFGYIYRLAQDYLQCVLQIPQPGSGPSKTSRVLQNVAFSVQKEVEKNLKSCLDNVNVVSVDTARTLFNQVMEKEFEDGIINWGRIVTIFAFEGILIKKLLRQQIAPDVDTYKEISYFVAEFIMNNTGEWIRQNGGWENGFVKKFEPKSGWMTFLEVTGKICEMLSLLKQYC
Experiment: Time-resolved FRET binding assay
Conditions: TR-FRET, arithmetic mean; read-out: Arithmetic Mean Ki, BCL2-A1
pKi: −log10 of the molar value.
TEST READOUT: pKi

q: // fetch pKi; item: COc1ccccc1-c1nccc(COc2ccccc2CC(Oc2ncnc3sc(-c4ccc(F)cc4)c(-c4ccc(OCCN5CCN(C)CC5)c(Cl)c4C)c23)C(=O)O)n1 (stereo not shown) [Compound 1, reference compound] ; system: BCL2-A1 (Homo sapiens)
a: < 6.33

###

Test: Phase 1 first-in-human study (NCT04178902): pharmacokinetics
Type: in vivo
Settings: human, plasma, intravenous, 0.53 mg/kg, Cycle 1 day 15, 0.53 mg/kg, N=2, individual values; read-out: t1/2
TEST READOUT: half-life (min)
The response must be a number in min with no trailing unit.

q: Fill in half-life for record Cc1c(Cl)c2c(Cl)c(C)c1-c1c(-c3ccc(F)cc3)sc3ncnc(c13)O[C@@H](C(=O)O)Cc1cc(ccc1OCc1ccnc(-c3ccc(OC[C@H]4COCCO4)cc3)n1)OC[C@@H](CN1CCN(C)CC1)O2 [ABBV-467]
a: 63.3

###

Recorded EC50 values for a group of molecules are listed next.
Test system: AMO-1 cells
Assay: In vitro cell viability assay (CellTiter-Glo)
Type: cell-based, human
Conditions: Homo sapiens, AMO1, 24 h, read-out: AMO-1 EC50 (nM, 10% FBS), 10% FBS, 24 h continuous treatment
# output: bare number, implied unit nM

These solved cases illustrate the format of a correct answer.
molecule=Cc1c(Cl)c2c(Cl)c(C)c1-c1c(-c3ccc(F)cc3)sc3ncnc(c13)O[C@@H](C(=O)O)Cc1cc(ccc1OCc1ccnc(-c3ccc(OC[C@H]4COCCO4)cc3)n1)OC[C@@H](CN1CCN(C)CC1)O2 reported_measurement=0.1
molecule="CO[C@H]1/C=C/C[C@H](C)[C@@H](C)S(=O)(=O)NC(=O)c2ccc3c(c2)N(C[C@@H]2CC[C@H]21)C[C@@]1(CCCc2cc(Cl)ccc21)CO3 [AMG 176, reference compound]" reported_measurement=90.6
molecule="CO[C@]1(CN2CCN3CCCC[C@@H]3C2)/C=C/C[C@H](C)[C@@H](C)S(=O)(=O)NC(=O)c2ccc3c(c2)N(C[C@@H]2CC[C@H]21)C[C@@]1(CCCc2cc(Cl)ccc21)CO3 [AMG 397, reference compound]" reported_measurement=13.5
molecule="Cc1c2c(nn1C)CSCc1cc(n(C)n1)CSc1cc(c3ccccc3c1)OCCCc1c(C(=O)O)n(C)c3c-2c(Cl)ccc13 [AZD5991, reference compound]" reported_measurement=22.9

Consider now this further molecule.
q: # return recorded EC50 for entry COc1ccccc1-c1nccc(COc2ccccc2CC(Oc2ncnc3sc(-c4ccc(F)cc4)c(-c4ccc(OCCN5CCN(C)CC5)c(Cl)c4C)c23)C(=O)O)n1 (centres unmarked) [Compound 1, reference compound]
a: 2.06

###

Test system: AMO-1 cells
Experiment: In vitro cell viability assay (CellTiter-Glo)
Assay type: cell-based, human
Conditions: Homo sapiens, AMO1, AMO-1, arithmetic mean; read-out: Arithmetic Mean EC50 nM
TEST READOUT: EC50 (nM)
Number in nM, nothing else.

Example entries and their recorded answers appear below.
compound="CO[C@]1(CN2CCN3CCCC[C@@H]3C2)/C=C/C[C@H](C)[C@@H](C)S(=O)(=O)NC(=O)c2ccc3c(c2)N(C[C@@H]2CC[C@H]21)C[C@@]1(CCCc2cc(Cl)ccc21)CO3 [AMG 397, reference compound]" reported_measurement=13.5
compound=Cc1c2c(nn1C)CSCc1cc(n(C)n1)CSc1cc(c3ccccc3c1)OCCCc1c(C(=O)O)n(C)c3c-2c(Cl)ccc13 reported_measurement=22.9
compound=Cc1c(Cl)c2c(Cl)c(C)c1-c1c(-c3ccc(F)cc3)sc3ncnc(c13)O[C@@H](C(=O)O)Cc1cc(ccc1OCc1ccnc(-c3ccc(OC[C@H]4COCCO4)cc3)n1)OC[C@@H](CN1CCN(C)CC1)O2 reported_measurement=0.15

q: Give the reported EC50 for this compound. CO[C@H]1/C=C/C[C@H](C)[C@@H](C)S(=O)(=O)NC(=O)c2ccc3c(c2)N(C[C@@H]2CC[C@H]21)C[C@@]1(CCCc2cc(Cl)ccc21)CO3
a: 90.6

###

Biological target: off-target receptors, ion channels, and transporters (Homo sapiens)
Sequence (P07948 2-512): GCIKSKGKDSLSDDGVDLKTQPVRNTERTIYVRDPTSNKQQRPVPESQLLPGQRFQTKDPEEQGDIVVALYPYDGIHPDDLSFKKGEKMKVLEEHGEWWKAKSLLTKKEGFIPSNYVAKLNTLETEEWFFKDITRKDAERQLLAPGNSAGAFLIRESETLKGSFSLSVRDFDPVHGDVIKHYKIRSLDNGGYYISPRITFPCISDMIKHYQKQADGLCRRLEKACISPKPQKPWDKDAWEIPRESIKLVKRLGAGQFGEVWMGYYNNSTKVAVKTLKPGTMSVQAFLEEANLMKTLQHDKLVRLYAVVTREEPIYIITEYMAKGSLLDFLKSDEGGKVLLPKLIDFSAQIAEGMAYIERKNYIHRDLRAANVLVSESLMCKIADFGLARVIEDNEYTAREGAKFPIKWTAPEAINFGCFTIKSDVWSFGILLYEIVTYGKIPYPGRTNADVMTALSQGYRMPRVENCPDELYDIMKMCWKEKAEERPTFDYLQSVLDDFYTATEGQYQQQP
pKi: −log10 of the molar value.
TEST READOUT: pKi

q: Please give the documented pKi of Cc1c(Cl)c2c(Cl)c(C)c1-c1c(-c3ccc(F)cc3)sc3ncnc(c13)O[C@@H](C(=O)O)Cc1cc(ccc1OCc1ccnc(-c3ccc(OC[C@H]4COCCO4)cc3)n1)OC[C@@H](CN1CCN(C)CC1)O2
a: < 5.09

###

Assay: Phase 1 first-in-human study (NCT04178902): pharmacokinetics
Format: in vivo
Details: human, in vivo, 0.53 mg/kg, Cycle 1 Day 15, DOSE_MGKG 0.53, cohort 3, PKTIME 4.5; read-out: CONC_NGML
TEST READOUT: concentration at 4.5 h (ng/mL)
Supply the numeric figure in ng/mL, leaving out any unit text.

q: Output concentration at 4.5 h of Cc1c(Cl)c2c(Cl)c(C)c1-c1c(-c3ccc(F)cc3)sc3ncnc(c13)O[C@@H](C(=O)O)Cc1cc(ccc1OCc1ccnc(-c3ccc(OC[C@H]4COCCO4)cc3)n1)OC[C@@H](CN1CCN(C)CC1)O2
a: 11.3
